- Tested on: CCRF-CEM
- experiment: NCI tumour cell line growth inhibition, 48 h
Calls of active or inactive are those of the source. Cut-off read from the data, not from the text of the source: active = GI50 up to about 1.1 µM and inactive = higher.
Your answer must be one of the following: 1 (yes) = active, 0 (no) = inactive

Record excerpt, results attached:
compound	class.assignment
CN1C(=O)N(c2nc3ccccc3[nH]2)C(C)(C)C1=O	0 (no)
COc1cc2c(cc1OC)C1(COc3cc(O)c(O)c(O)c3C1=O)C2 (configuration not stated)	0 (no)
O=C(C(=C(I)I)c1ccccc1)c1ccccc1	1 (yes)

# input Hi team, can someone confirm the assay call for OC(c1ccccc1)C(F)(F)c1nc2ccccc2o1 (configuration not stated) ?
# output 0 (no)

# input Recorded call for `CCCCCCCCCCC(=O)CCCCCCC(=O)O` ?
# output 0 (no)

# input Hi, sorry to bother you, what did the test record for `NS(=O)(=O)c1ccc(NC2=CC(=O)C(=O)c3ccccc32)cc1` ?
# output 0 (no)

# input // outcome(item) with item = `Cc1cccc(Nc2cn(CCOc3ccccc3)c(=O)n(CCOc3ccccc3)c2=O)c1`
# output 0 (no)
